Species: Rattus norvegicus
Assay: Open TG-GATES - Regimen: Daily Repeat
Format: toxicity, organism-based, Sprague-Dawley
Set-up: regimen Daily Repeat, gender Male, age 6 weeks
Settings: in vivo, po, 1000 mg/kg, 72 h, tissue Plasma, route gavage, dose level High, time 3 day
# CRE values compiled below
Only the number, expressed in mg/dL, is required.

Ask | Identify measured CRE corresponding to CNC(=C[N+](=O)[O-])NCCSCc1ccc(CN(C)C)o1
Reply | 0.4

Ask | // Input: CN/C(=N/CCSCc1nc[nH]c1C)NC#N . Output its CRE only.
Reply | 0.4

Ask | For the compound COC(=O)C1=C(C)NC(C)=C(C(=O)OC)C1c1ccccc1[N+](=O)[O-] , give its reported CRE.
Reply | 0.2
